// pKd lookup, one value per entry
target: DLG1_1, Q12959; experiment: holdup assay; set-up: key: below the threshold = too weak to quantify, mostly under pKd 3.1 to 4; details: plain residues with an end cap or a label only (N-terminal biotin on a linker: ahx)

| BINDER | pKd |
| --- | --- |
| QPRTWLQSPV [RTKN, Q9BST9] | 3.74 |
| HTHSYIETHV [CNKSR2, Q8WXI2] | 4.62 |
